- target-desc: Arabidopsis HPPD (SEQ ID: 53) (Arabidopsis thaliana, UniProt P93836)
- Sequence (P93836 1-445): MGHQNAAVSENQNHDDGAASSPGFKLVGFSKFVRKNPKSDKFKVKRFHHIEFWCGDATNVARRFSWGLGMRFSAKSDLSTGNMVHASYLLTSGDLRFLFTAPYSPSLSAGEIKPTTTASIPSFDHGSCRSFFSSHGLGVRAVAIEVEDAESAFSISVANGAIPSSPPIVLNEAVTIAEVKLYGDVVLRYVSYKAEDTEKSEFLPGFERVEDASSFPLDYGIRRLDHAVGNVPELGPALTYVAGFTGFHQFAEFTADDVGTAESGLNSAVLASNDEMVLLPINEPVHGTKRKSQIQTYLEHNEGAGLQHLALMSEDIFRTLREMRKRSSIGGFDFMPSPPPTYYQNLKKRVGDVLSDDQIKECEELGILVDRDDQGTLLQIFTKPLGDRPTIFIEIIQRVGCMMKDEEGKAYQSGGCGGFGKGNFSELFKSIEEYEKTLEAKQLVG
assay-readout: Ki (nM)
Express the result in nM but write the number alone.

compound CC1=NOC(c2c(Cl)ccc(C3=C(O)c4ncccc4N(CC(F)F)S3(=O)=O)c2Cl)C1 (centres unmarked) , Ki observed: 3.3

Sample O=S1(=O)C(c2c(Cl)cc(Cl)nc2Cl)=C(O)c2ncccc2N1CC(F)F ; Ki observed: 15

====

Give Ki for every item shown.
- target-desc: Hordeum HPPD (SEQ ID: 1/2) (Hordeum vulgare, UniProt O48604, A164G/R146V/R147D/R148G)
- Construct: His6
- Sequence (O48604 whole entry R146V/R147D/R148G/A164G): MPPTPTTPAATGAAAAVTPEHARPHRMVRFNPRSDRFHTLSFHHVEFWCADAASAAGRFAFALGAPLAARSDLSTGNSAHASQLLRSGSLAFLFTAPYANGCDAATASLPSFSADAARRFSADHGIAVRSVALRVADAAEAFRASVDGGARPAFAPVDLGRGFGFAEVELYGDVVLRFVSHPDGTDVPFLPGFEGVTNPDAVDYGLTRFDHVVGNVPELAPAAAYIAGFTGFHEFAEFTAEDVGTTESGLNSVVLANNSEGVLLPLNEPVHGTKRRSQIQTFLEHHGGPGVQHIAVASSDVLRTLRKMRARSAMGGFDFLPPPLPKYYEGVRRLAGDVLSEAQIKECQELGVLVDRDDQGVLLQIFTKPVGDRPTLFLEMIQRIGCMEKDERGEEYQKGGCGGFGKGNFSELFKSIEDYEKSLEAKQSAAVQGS
- experiment-description: HPPD activity assay, wildtype Hordeum HPPD
- condition-notes: Hordeum HPPD; Cheng-Prusoff from IC50; read-out: Ki (dissociation constant)
Please give a number only; it is taken to be in nM.

Form: compound = O=S1(=O)C(c2c(Cl)cc(Cl)nc2Cl)=C(O)c2ncccc2N1CC(F)F ; Ki = 2.6

The reported Ki of the compound CC1=NOC(c2c(Cl)ccc(C3=C(O)c4ncccc4N(CC(F)F)S3(=O)=O)c2Cl)C1 (centres unmarked) was 2.7

Provenance of the data: patent US10801035B2
